Experiment: Plasma kinetics of the anti-cancer agent after intra-arterial (TACE) injection, rat with N1-S1 tumor
Type: in vivo, female Sprague-Dawley rats
Details: female, Sprague-Dawley, rat N1-S1 model, intra-arterial injection 100 μl, 0.5 mg anti-cancer agent, average
Method: The tumor induction method described in Garin et al. (Lab Anim. 2005 July; 39(3): 314-20) was used on female Sprague-Dawley rats (supplier Dépré or Janvier, France), anesthetized beforehand. […] The plasma doxorubicin assay was carried out in the heparinized rat plasma by high performance liquid chromatography (or HPLC), the chromatograph being equipped with a fluorescence detector. […]
parameter.measured: concentration at 5 min
Please answer using a numeric value trailed by its unit.

Exercise: Note concentration at 5 min for the molecule shown: COc1cccc2c1C(=O)c1c(O)c3c(c(O)c1C2=O)C[C@@](O)(C(=O)CO)C[C@@H]3O[C@H]1C[C@H](N)[C@H](O)[C@H](C)O1 [Control doxorubicin alone, doxorubicin]
Key: 2450 ng/mL

====

Experiment: Plasma kinetics of the anti-cancer agent after intra-arterial (TACE) injection, rat with N1-S1 tumor
Type: in vivo, female Sprague-Dawley rats
Conditions: female, Sprague-Dawley, rat N1-S1 model, 45 min after intra-arterial injection, read-out: Plasma doxorubicin concentration at 45 min
Description: The tumor induction method described in Garin et al. (Lab Anim. 2005 July; 39(3): 314-20) was used on female Sprague-Dawley rats (supplier Dépré or Janvier, France), anesthetized beforehand. […] The plasma doxorubicin assay was carried out in the heparinized rat plasma by high performance liquid chromatography (or HPLC), the chromatograph being equipped with a fluorescence detector. […]
parameter.measured: concentration at 45 min
Please answer using a numeric value trailed by its unit.

Exercise: Note concentration at 45 min for the compound shown: COc1cccc2c1C(=O)c1c(O)c3c(c(O)c1C2=O)C[C@@](O)(C(=O)CO)C[C@@H]3O[C@H]1C[C@H](N)[C@H](O)[C@H](C)O1 [Control doxorubicin alone, doxorubicin]
Key: 112 ng/mL
